Test: NCI Yeast Anticancer Drug Screen. Data for the mlh1 rad18 strain (AID 175)
Settings: S. cerevisiae mlh1 rad18 strain growth inhibition; at 50.0 µM; hits give high values
Experimental: Growth inhibition of yeast strains with defined genetic alterations is measured as a screen for potential anti-cancer activity. Selected strains with alterations in DNA damage repair or cell cycle control were exposed to compounds and growth inhibition was measured relative to vehicle treated controls. The strain used in this assay is mlh1 rad18
The panel holds about 79,000 compounds, 15% with a hit somewhere; the sample as a whole holds those more often. Where a SMILES comes first, the peptide text is derived from it. The star is where a group is joined. Boc = CC(C)(C)OC(=O)*
Please respond with reported growth inhibition for every item in the list.
A number alone suffices; assume %.

Reported growth inhibition for `CC(C)=C1C=CC=C1` : what is it? -6.95

And then `C#CCN(C)C(C)=O` , what is it? 13.6

Another molecule to check: `COc1ccc(OC)c(/C=C/c2ccccc2)c1` -14.9

Could you do the same for CC1C(=NO)C(C)C(c2ccccc2)N(N=O)C1c1ccccc1 (stereo not given) , please? 26.4

Further, for COC(=O)CNC(=O)C(CC(C)C)NC(=O)C(CC(C)C)NC(=O)OC(C)(C)C (stereo not drawn) (Boc-Leu-Leu-Gly-OMe; configuration not given here) ? 15.8

How about `O=C(Nc1cccc2c1C(=O)c1c(NC(=O)c3ccccc3)ccc(Nc3cccc4c3C(=O)c3ccccc3C4=O)c1C2=O)c1ccccc1` ? 3.45

Next: `CCc1nc(N)nc(N)c1-c1ccc2nnn(O)c2c1` -3.1

COc1ccc(-c2cc3cc(CCCOC4OC(COC5OCC(O)C(O)C5O)C(O)C(O)C4O)cc(OC)c3o2)cc1OC (stereo not given) , same question. 23.4

// next record CC(C)OCC(O)CNCCN (stereo not given) -0.75

Would you mind doing `CC(=O)O[C@H]1CC[C@@]2(C)[C@@H](CC[C@@H]3[C@@H]2CC(=O)[C@]2(C)[C@@H]4[C@H](C[C@@H]32)O[C@]2(CC[C@@H](C)CO2)[C@H]4C)C1` as well? 2.3

###

Assay: NCI Yeast Anticancer Drug Screen. Data for the cln2 rad14 strain (AID 165);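 further: 0% = growth equal to vehicle treated cultures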
Conditions: S. cerevisiae cln2 rad14 strain, at 50.0 µM
Description: Growth inhibition of yeast strains with defined genetic alterations is measured as a screen for potential anti-cancer activity. Selected strains with alterations in DNA damage repair or cell cycle control were exposed to compounds and growth inhibition was measured relative to vehicle treated controls. The strain used in this assay is cln2 rad14
This is part of a sample that, as a whole, favours compounds with a hit. Of some 79,000 tested, about 15% had one in any assay. Calls of active or inactive are those of the source. Rule as the data show it: active = growth inhibition above about 70%; inactive = the rest.
Tick one outcome: active, inactive

Entry CC(=O)Nc1cc(Cl)ccc1SC1OC(COC(C)=O)C(OC(C)=O)C(OC(C)=O)C1OC(C)=O (centres undefined) : call = ? inactive

Another compound to look at: `CS(=O)(=O)OCc1nnn(-c2ccccc2)c1COS(C)(=O)=O` inactive

What about this compound? `COC(=O)C1(C(=O)OC)O[C@@H](c2ccccc2)[C@H]2C(=O)N(C)C(=O)[C@H]21` inactive

Then what about the compound `O=c1oc2c(CN3CCOCC3)c(O)ccc2c2c1CCCC2` ? inactive

Lookup `Nc1cc(C(F)(F)F)cc(C(F)(F)F)c1` inactive

And for `Cc1cc(=O)oc2cc(OCc3ccccc3)cc(O)c12` ? inactive

Now consider C1CSCCSCCCSC2CCCCC2SC1 (centres undefined) and answer again. inactive

Quick one: COc1ccc(S(=O)(=O)N2OC2c2ccccc2)cc1 (centres undefined) inactive

// repeat for `CC1(C)CC(O)CC(C)(C)N1.CC1(C)CC(O)CC(C)(C)N1.CC1(C)CC(O)CC(C)(C)N1.CC1(C)CC(O)CC(C)(C)N1.Cl.[Ti]` and report inactive

Try this compound too: `N#C/C(=C\c1ccc(Cl)cc1)c1nc2ccccc2c(=O)[nH]1` inactive

Now give it for `c1ccc2c(c1)CCc1ccccc1N=N2` too. inactive

Would you mind doing `CN(C)S(=O)(=O)Oc1ccccc1N` as well? inactive

Another: `Cc1cc(S(=O)(=O)Nc2n[nH]c(Nc3ccccc3)n2)c(S)cc1Cl` inactive

Check `O=C(O)c1ccc(CC2CCCC2)cc1` too. inactive

And the next one, `CCCCCC/C(CC(=O)CCC(=O)NCCc1ccccc1)=N\NC(=O)c1ccc2ccccc2c1O` ? inactive

Ok, now C=C(C)C(=O)OCCOCC(CC)CCCC (centres undefined) inactive

Here is the next compound: `Sc1ccccc1N=Cc1ccc(C=Nc2ccccc2S)cc1` inactive

Here is the next compound: CC(=O)OCC1OC(n2c3c(c(-c4ccc(Cl)cc4)c(C#N)c2=S)C(=O)CC(C)(C)C3)C(OC(C)=O)C(OC(C)=O)C1OC(C)=O (centres undefined) inactive

Try COc1ccccc1NC(=O)C(CC(C(=O)Nc1ccccc1OC)/C(C)=N/Nc1ccc([N+](=O)[O-])cc1[N+](=O)[O-])/C(C)=N/Nc1ccc([N+](=O)[O-])cc1[N+](=O)[O-] (centres undefined) next. inactive

Same again, this time with `NC(=S)NNC(=O)CCC(=O)Nc1ccccc1Cl` inactive

Next record, please: `CC(C)OP(=O)(OC(C)C)/C(F)=N/Nc1ccc([N+](=O)[O-])cc1` inactive

Then what about the compound `CC(=Nc1ccc(C)cc1N)c1c(O)cc(C)oc1=O` ? inactive

What do you get for COc1ccc(-c2c(C#N)c(S)n(C3OC(COC(C)=O)C(OC(C)=O)C(OC(C)=O)C3OC(C)=O)c(=O)c2C#N)cc1 (centres undefined) ? inactive

Further, for C=CCOC(=O)NC(Cc1ccc(O)cc1)C(=O)O (centres undefined) ? inactive

Query CCOC(=O)C1CN(C2CCCCC2)CCC1=O (centres undefined) next inactive

Next record, please: CC1CN=C(c2c(O)ccc3ccccc23)S1 (centres undefined) inactive

Same again, this time with NCC1OC(OC2C(CO)OC(OC3C(O)C(N)CC(N)C3OC3OC(CO)C(O)C(O)C3N)C2O)C(N)C(O)C1O (centres undefined) inactive

Next entry: `C/C(=N/NS(=O)(=O)c1ccc(C)cc1)C(C)C` inactive

Next compound up: CC1CCC(=O)C(C(=O)CC2CC(=O)NC(=O)C2)C1 (centres undefined) inactive

Further, for `Cc1[nH]c(N)nc(=S)c1CCC(C)C` ? inactive

Further, for ICC1OCOC2C(CI)OCOC12 (centres undefined) ? inactive

`CCOC(=O)/C=C(\Nc1ccc(C(c2ccccc2)(c2ccccc2)c2ccccc2)cc1)C(=O)OCC` ? inactive

Now consider `CCOC(=O)CCN(CCC(=O)OCC)Cc1cc(Cl)c2cccnc2c1O` and answer again. active

Field entry: `O=C(CN1C(=O)c2ccccc2C1=O)NCCO` inactive

Please answer likewise for COc1ccc(CNC(=O)C2C(=O)C(=O)N(Cc3ccc(OC)c(OC)c3)C2=O)cc1OC (centres undefined) inactive

Proceed to CC(=O)OCC1OC(OC(C)=O)C(Nc2ncnc3nc[nH]c23)C(OC(C)=O)C1OC(C)=O (centres undefined) inactive

Also, `C[CH2][Sn]([CH2]C)([O]C(=O)c1cccc(F)c1)[O][Sn]([CH2]C)([CH2]C)[O]C(=O)c1cccc(F)c1` please. inactive

How about `CCCCCC/C(C=O)=C\c1ccccc1` ? inactive

Also `Cc1nccc2cccc(CNC(C)C)c12` , if possible. inactive

Next compound up: `COc1ccc2c(Cc3ccccc3O)cncc2c1O` inactive

For `COC(=O)CSSCc1ccccc1` then? inactive

Input `Cc1ccc(NC(=O)C(=O)Cc2cccc[n+]2[O-])cc1C` inactive

Note, next up: `COc1ccc(CCN=C(C)c2cc(Cl)cc(Cl)c2O)cc1OC` inactive

Then this compound: CCCCN(CCCC)C(=O)C(=O)C(C)C(=O)CC (centres undefined) inactive

###

Experiment: NCI Yeast Anticancer Drug Screen. Data for the bub3 strain (AID 167)
Details: S. cerevisiae bub3 mutant strain, at 50.0 µM, hits give high values
About 79,000 compounds went through this panel and 15% of them were active in at least one assay; those are over-represented in the sample as a whole. Where a SMILES comes first, the peptide text is derived from it. [ ]: non-standard residue; d: D form. The star is where a group is joined. ξ: configuration not given here. Bz = O=C(c1ccccc1)*; Bn = c1ccc(C*)cc1; ξC = NC(CS)C(=O)O
Parameter Measured: growth inhibition (%)
Numbers only here, please. The scale is %.

Which growth inhibition reading was recorded for the compound C=C1C(=O)OC2/C=C(/CO)C3(O)CC(O)C(C)(CC(OC(=O)/C(C)=C/C)C12)O3 (centres undefined) ? 0.85

Record: `C/C(=N\NC(=S)N1CCN(c2ccccn2)CC1)c1cccc2cccnc12` 1.4

Same question for `O=S(=O)(CS(=O)(=O)N1CCCCC1)N1CCCCC1` please. 6.7

One more compound: `OCCN(Cc1ccccc1)Cc1ncccc1O` -3.9

Now give it for O=C(CNC(=O)c1ccccc1)NC(CSCc1ccccc1)C(=O)O (centres undefined) (Bz-Gly-[ξC](Bn)-OH) too. -34.2

Moving on to `CNC(=S)Nc1cccc(C)c1` -10.4

Here is the next compound: `O=C(N/N=C/c1ccc(Cl)cc1)c1cc(-c2ccccc2)nc2ccccc12` 2

Param item: Cc1nn(C(=O)c2ccccc2O)c2c1C(c1ccccc1)SC(N)=N2 (centres undefined) 30.9

Item: `CC(=O)c1cccc(NC(=O)Nc2cccc(O)c2)c1` 56.1

CCC(c1ccc(O)cc1)c1cc2c(cc1OCC(=O)OC)OCO2 (centres undefined) ? 0.65

And for O=C(NCc1ccccc1)C(O)c1ccccc1 (centres undefined) ? 8.2

Entry to check: CCCC(P(=O)(c1ccccc1)c1ccccc1)[P+](CC)(c1ccccc1)c1ccccc1 (centres undefined) 81.7

Next up: `CC1=CC(=O)C(CN(C)C)(CN(C)C)C(C)(C)C1` -1.65

Note, next up: `Cc1cnc2[nH]c(-c3ccc(Cl)cc3)cc(=O)c2c1` -32

And `O=NN(C(=O)NCCCl)c1[nH]c(=O)ncc1I` ? 3.05

Also need O=C1OC(c2ccccc2)C=C1Nc1ccccc1 (centres undefined) , thanks. 17

What do we get for CCC(C(O)c1ccc(Cl)cc1)[N+](=O)[O-] (centres undefined) ? 4.65

Cool, now `CC1(O)CCCCCCC1` 7.9

Request: `Nc1cnc(Nc2cccc3ccccc23)o1` 8.85

Please give the result for CC1CCOC(C)(Cc2ccccc2)O1 (centres undefined) too. -18.1

Similarly, `CCCCCCCCCCCC[Si](c1ccccc1)(c1ccccc1)c1ccccc1` ? 1

Repeat for the following compound: `c1ccc(-c2nnn(CCN3CCCCC3)n2)cc1` 34

Again, but for `O=C(CCCCCC(=O)CC(=O)CCc1ccccc1)CC(=O)CCc1ccccc1` 19.1

# repeat for `CS(=O)(=O)Nc1ccc2ccccc2c1` -3.05

Likewise for NC(CC(=O)OCc1ccccc1)C(=O)OCc1ccccc1 (centres undefined) ? 3.55

Please give the result for Cc1ccc(NC(=O)C(Br)C(Br)c2ccccc2)cc1Cl (centres undefined) too. 94.7

Same question, `O=c1ccsc(=S)[nH]1` this time 9.05

Thanks! And COC(=O)C(=O)C(C(=O)C(=O)Nc1ccc([N+](=O)[O-])cc1)c1nc2ccccc2[nH]c1=O (centres undefined) ? 11.7

Now the same for `COc1cc2c(cc1OC)C(=O)/C(=C/c1ccc(O)cc1)CC2` 23.2

Input CC(NC(=O)C(NC(=O)c1ccc[n+](Cc2ccccc2)c1)C(C)C)C(N)=O (centres undefined) -1.95

Try `O=C(Nc1ccc(Cl)cc1)C(=O)C1=C(O)c2ccccc2OC1` next. -4.95

Now try `O=C(CCCC(=O)N/N=C/c1cc(Cl)ccc1[N+](=O)[O-])N/N=C\c1cc(Cl)ccc1[N+](=O)[O-]` . -1.9

Now the compound COc1cc(C2c3cc4c(c(OC(=O)c5ccncc5)c3CC3COC(=O)C32)OCO4)cc(OC)c1OC (centres undefined) 5.8

Repeat with `COc1ccc2c(c1)s/c(=N/N)n2CCCS(=O)(=O)O` 5.4

Param item: `O=CSC(=Nc1ccc(Cl)cc1)NC(=O)COc1ccc(Cl)cc1` 33.3

COC1(C)CCC2(O)C(=O)OC3C(O)COC32O1 (centres undefined) ? -1.85

Another compound to look at: COc1ccccc1C(O)C(C)(C)C (centres undefined) 8.4

Now this one: `CC(=O)n1oc2c(Br)cc(Br)cc2c1=O` -1.05

What do we get for `CC(=O)Nc1ccc[n+](CC(=O)c2ccc(F)cc2)c1` ? -5.45

Now give it for `O=C(O)C12CCCC(CCC1)C2` too. -0.2

Okay, and `O=C(CCC1CCCC1)Oc1ccccc1C(=O)O` ? 9.5

Same question, `[O-]c1on[n+](-c2ccccc2)c1CN1CCOCC1` this time 8.1

Lookup `C=CCOc1cc(=O)[nH]c2ccccc12` -0.45

Let us now turn to Cc1nn(C(=O)c2ccc(Cl)cc2)c2c1C(c1ccccc1[N+](=O)[O-])SC(N)=N2 (centres undefined) 27.6

Another compound: `CCCc1ccccc1NC(=O)NCCCl` -12.9

Please answer likewise for `NNc1cccc(Cl)n1` -9.8

Follow-up entry: `Cc1oc(C)c2c(N=Nc3ccc([N+](=O)[O-])cc3[N+](=O)[O-])c3ccccc3c(O)c12` 37.5

Please do the same for COc1cccc(C2NC(=O)c3c(n[nH]c3N)S2)c1O (centres undefined) as well. 5.85

One more compound: `O/N=C/c1ccc(Cc2ccccc2)o1` -11.3

Where these numbers come from: PubChem BioAssay (NCI)
